Measured IC50 accompanies every entry in the list below.
target: Full length BTK enzyme (human BTK residues 2-659) (Homo sapiens, UniProt Q06187); construct: 6His (N); Flag (N); TEV cleavage site (N); Serine (single linker residue before BTK residue 2) (N); made in house; host or cells: baculovirus (pFastBac vector); test: BTK MSA with full length BTK enzyme, used for Examples 50, 51, 62 and 63; format: biochemical; details: Examples 50, 51, 62 and 63: 1 mM ATP, 0.6 nM full length BTK enzyme, 3 hours at room temperature
Sequence (Q06187 2-659): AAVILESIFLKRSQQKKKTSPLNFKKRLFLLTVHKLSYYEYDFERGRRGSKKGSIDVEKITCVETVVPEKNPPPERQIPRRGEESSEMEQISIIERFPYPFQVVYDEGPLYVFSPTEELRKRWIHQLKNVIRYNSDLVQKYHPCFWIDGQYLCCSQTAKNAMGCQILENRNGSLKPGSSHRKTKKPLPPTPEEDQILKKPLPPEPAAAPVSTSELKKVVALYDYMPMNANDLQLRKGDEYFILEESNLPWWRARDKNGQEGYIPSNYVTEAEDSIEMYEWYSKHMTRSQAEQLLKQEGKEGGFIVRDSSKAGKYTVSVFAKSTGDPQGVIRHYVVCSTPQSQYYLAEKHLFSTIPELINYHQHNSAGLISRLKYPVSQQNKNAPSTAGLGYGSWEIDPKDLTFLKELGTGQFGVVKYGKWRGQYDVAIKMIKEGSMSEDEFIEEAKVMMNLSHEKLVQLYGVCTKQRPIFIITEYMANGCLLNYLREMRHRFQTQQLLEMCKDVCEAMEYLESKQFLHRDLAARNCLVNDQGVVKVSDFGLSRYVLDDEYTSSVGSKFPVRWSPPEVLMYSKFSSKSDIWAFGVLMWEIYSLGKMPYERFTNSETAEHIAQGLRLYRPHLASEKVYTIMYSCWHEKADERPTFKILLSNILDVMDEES
A number alone suffices; assume nM.

| Compound | Recorded value |
| --- | --- |
| C=CC(=O)N1CC(N2CCNc3c2nn(-c2ccc(Oc4ccc(F)c(F)c4)cc2)c3C(N)=O)C1 | 20.3 |

So, C=CC(=O)N1CC(N2CCNc3c2nn(-c2ccc(Oc4cccc(F)c4)cc2)c3C(N)=O)C1 ? Its IC50 was 6.2

So, COC(=O)/C=C/C(=O)N1CCN(C2CCNc3c2nn(-c2ccc(Oc4ccccc4)cc2)c3C(N)=O)CC1 (stereo not shown) ? Its IC50 was 507

So, CCO/C=C/C(=O)N1CCN([C@@H]2CCNc3c2nn(-c2ccc(Oc4ccccc4)cc2)c3C(N)=O)CC1 ? Its IC50 was 38.6

The reported numbers originate from patent US20220213092A1.
